Measured values drawn from ChEMBL document CHEMBL1909046 for this set.

- assay-system: Cytochrome P450 1A2 (Homo sapiens); further: in other assays of this panel Not Active means under 50% inhibition at 10 µM
- Sequence (P05177 whole entry): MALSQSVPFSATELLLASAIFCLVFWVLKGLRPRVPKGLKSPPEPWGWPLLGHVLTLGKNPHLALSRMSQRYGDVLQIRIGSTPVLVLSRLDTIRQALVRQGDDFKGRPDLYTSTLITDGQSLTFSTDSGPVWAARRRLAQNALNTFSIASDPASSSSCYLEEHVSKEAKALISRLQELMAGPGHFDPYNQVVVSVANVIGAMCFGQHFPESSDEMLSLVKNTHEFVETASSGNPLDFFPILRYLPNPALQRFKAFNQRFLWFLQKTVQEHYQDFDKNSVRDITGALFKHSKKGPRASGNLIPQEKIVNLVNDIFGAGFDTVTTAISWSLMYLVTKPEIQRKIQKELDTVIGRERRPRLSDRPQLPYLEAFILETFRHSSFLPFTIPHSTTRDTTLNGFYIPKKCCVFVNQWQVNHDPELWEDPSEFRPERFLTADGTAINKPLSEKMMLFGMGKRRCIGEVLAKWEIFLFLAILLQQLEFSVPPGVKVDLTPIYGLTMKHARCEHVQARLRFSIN
- experimental-parameters: bti-tn-5b1-4
measurement-name: IC50

OC[C@H]1OC2C3[C@@H](CO)OC(O[C@H]4[C@H](O)[C@@H](O)[C@@H](O[C@H]5[C@H](O)[C@@H](O)[C@@H](O[C@H]6[C@H](O)[C@@H](O)[C@@H](O[C@H]7[C@H](O)[C@@H](O)[C@@H](O[C@H]8[C@H](O)[C@@H](O)[C@@H](O[C@H]9[C@H](O)[C@@H](O)C(OC1[C@H](O)[C@H]2O)O[C@@H]9CO)O[C@@H]8CO)O[C@@H]7CO)O[C@@H]6CO)O[C@@H]5CO)O[C@@H]4CO)[C@H](O)[C@H]3O : Not Active
CO[C@H]1O[C@@H]2O[C@@]3(C)CC[C@H]4[C@H](C)CC[C@@H]([C@H]1C)[C@@]24OO3 : Not Active
